- experimentalDetails: Pharmacokinetics after a single oral administration (plasma, LC-MS/MS)
- conditionLabel: male, Crl:CD1 (ICR), mouse, in vivo, 0.5 mg/kg
propertyLabel: concentration at 2 h (ng/mL)
Numbers only, in ng/mL.

Request: What does the data say about its concentration at 2 h? Entry: CC[C@]1(c2cc(NS(=O)(=O)C3CC3)ccc2F)[C@@H]2CN(CC3(O)Cc4ccccc4C3)C[C@@H]21
Response: 2.96

----------
- experimentalDetails: Pharmacokinetics after a single oral administration (plasma, LC-MS/MS)
- conditionLabel: male, Crl:CD1 (ICR), mouse, in vivo, 0.5 mg/kg
propertyLabel: concentration at 24 h
Give the number first and the unit second.

Request: What does the data say about its concentration at 24 h? Entry: CC[C@]1(c2cc(NS(=O)(=O)C3CC3)ccc2F)[C@@H]2CN(CC3(O)Cc4ccccc4C3)C[C@@H]21 [UD-030]
Response: 0.231 ng/mL

----------
- experimentalDetails: Pharmacokinetics after a single oral administration (plasma, LC-MS/MS)
- conditionLabel: male, Crl:CD1 (ICR), mouse, in vivo, 1 mg/kg
propertyLabel: concentration at 4 h

Request: What does the data say about its concentration at 4 h? Entry: CC[C@]1(c2cc(NS(=O)(=O)C3CC3)ccc2F)[C@@H]2CN(CC3(O)Cc4ccccc4C3)C[C@@H]21
Response: 11.5 ng/mL

Where do the numbers come from? From paper PMC9961271.
